Experiment: qHTS assay to identify small molecule antagonists of the estrogen related receptor (ERR) signaling pathway (AID 1224819; also: nearly all actives have a fitted effect of over 50% in size; also: potency is read from the fitted curve at half-maximal effect)
Conditions: ERR reporter cell line, luciferase inhibition; series mostly up to 46.1 µM
Results filed as inconclusive are left out. Calls of active or inactive are those of the source. Calls follow the shape of the dose curve; as a rule, active = well fitted inhibition curve with a large enough effect in the repeat runs; inconclusive = weak or mixed curves; inactive = no such curve, though single readings can be large or run the other way.
VALUE TYPE: Potency

* CC[C@@H](C)[C@H]1O[C@]2(CC[C@@H]1C)C[C@@H]1C[C@@H](C/C=C(\C)[C@@H](O[C@H]3C[C@H](OC)[C@@H](O[C@H]4C[C@H](OC)[C@@H](O)[C@H](C)O4)[C@H](C)O3)[C@@H](C)/C=C/C=C3\CO[C@@H]4[C@H](O)C(C)=C[C@@H](C(=O)O1)[C@]34O)O2 | 12.3 µM (active)
* CCCn1c(=O)c(C)cn2nc(N)nc12 | inactive
* O=c1onc2cnc3ccccc3n12 | inactive
* NC(Cc1cccc(-c2ccccc2CP(=O)(O)O)c1)C(=O)O (stereo not given) | inactive
* CCOC(=O)C1=C(C)NC(C)=C(C(=O)OCC)C1c1c(F)c(F)c(F)c(F)c1F | 19.6 µM (active)
* COc1cc(C(O)CO)ccc1OS(=O)(=O)O (stereo not given) | inactive
* Fc1ccc(CN(C2=NCCN2)c2c(Cl)cccc2Cl)cc1 | inactive
* CCCCOc1cc(CC2CNC(=O)N2)ccc1OC (stereo not given) | inactive
* Cc1nc2c(OCc3ccccc3)cccn2c1CC#N | inactive

// next item, Potency requested
Any idea what its Potency is? The compound is NC(=S)c1ccc[n+]([C@@H]2O[C@@H](COP(=O)([O-])OP(=O)(O)OC[C@H]3O[C@@H](n4cnc5c(N)ncnc54)[C@H](OP(=O)(O)O)C3O)C(O)C2O)c1 (stereo not given in full)
inactive
